Data provenance: patent US10988465B2

test: in vitro; settings: human, Caco-2, pH 7.4
Catalogue of molecules with associated efflux ratio at 90 min, 10 μM
assayReadout: efflux ratio at 90 min, 10 μM

molecule="Cc1cccnc1[C@@H]1CCC[C@H](c2nc3c(Br)ccc(Br)c3n2CC2CCN(C)CC2)N1C [I-47]" result="0.1 to 10"
molecule="Cc1cccnc1[C@@H]1CCC[C@H](c2nc3cccc(N4CCN(C)CC4)c3n2C)N1 [I-123]" result="0.1 to 10"
molecule="Cc1cccnc1[C@@H]1CCC[C@H](c2nc3cccc(N4CCN(C5CC5)CC4)c3[nH]2)N1C [I-76]" result="0.1 to 10"
molecule="CCN1CCN(c2cccc3nc([C@H]4CCC[C@@H](c5ncccc5Cl)N4)[nH]c23)CC1 [I-149]" result="0.1 to 10"
molecule="Clc1cccnc1[C@@H]1CCC[C@H](c2nc3cccc(N4CCN(C5CC5)CC4)c3[nH]2)N1 [I-143]" result="0.1 to 10"
molecule="CC(C)c1cccnc1[C@@H]1CCC[C@H](c2nc3cccc(N4CCN(C)CC4)c3[nH]2)N1C [I-49]" result="0.1 to 10"
molecule="Cc1cccnc1[C@@H]1CCC[C@H](c2nccn2CCCN(C)C)N1C [I-165]" result="0.1 to 10"
molecule="Cc1cccnc1[C@@H]1CCC[C@H](c2nc3cccc(N4CC5CCC(C4)N5C)c3[nH]2)N1C [I-56]" result="0.1 to 10"
molecule="Cc1ccnc([C@@H]2CCC[C@H](c3nc4cccc(N5CCN(C)CC5)c4[nH]3)N2C)c1Cl [I-116]" result="0.1 to 10"
molecule="CN1CCN(c2cccc3nc([C@H]4CCC[C@@H](c5ncccc5OC(F)(F)F)N4C)[nH]c23)CC1 [I-63]" result="0.1 to 10"
molecule="Cc1cccnc1[C@@H]1CCC[C@H](c2nc3cccc(N4CCNC(C)C4)c3[nH]2)N1C (stereo partly drawn) [I-50]" result="10 to 30"
molecule="CCN1CCC(Oc2cccc3nc([C@H]4CCC[C@@H](c5ncccc5C)N4C)[nH]c23)CC1 [I-43]" result="0.1 to 10"
molecule="Cc1c(Cl)ccnc1[C@@H]1CCC[C@H](c2nc3cccc(N4CCN(C)CC4)c3[nH]2)N1C [I-82]" result="0.1 to 10"
molecule="COc1ccnc([C@@H]2CCC[C@H](c3nc4cccc(N5CCN(C)CC5)c4[nH]3)N2C)c1C [I-81]" result="0.1 to 10"
molecule="Cc1cccnc1[C@@H]1CCC[C@H](c2nc3cccc(N4CCN(C)CC4)c3[nH]2)N1 [I-83]" result="0.1 to 10"
molecule="Cc1cccnc1[C@@H]1CCC[C@H](c2nc3cccc(N4CCN(C)C5(CC5)C4)c3[nH]2)N1C [I-108]" result="0.1 to 10"
molecule="CN1CCC(n2c([C@H]3CCC[C@@H](c4ncccc4Cl)N3C)nc3ccccc32)CC1 [I-134]" result="0.1 to 10"
molecule="COc1cccnc1[C@@H]1CCC[C@H](c2nc3cccc(N4CCN(C)CC4)c3[nH]2)N1 [I-127]" result="0.1 to 10"
molecule="CN(C)C1CCN(c2cccc3nc([C@H]4CCC[C@@H](c5ncccc5Cl)N4)[nH]c23)CC1 [I-153]" result="0.1 to 10"
molecule="CN1CCN(c2cccc3nc([C@H]4CCC[C@@H](c5ncccc5OC5CC5)N4C)[nH]c23)CC1 [I-72]" result="0.1 to 10"
molecule="CN1CCN(c2cccc3nc([C@H]4CCC[C@@H](c5ncccc5C#N)N4C)[nH]c23)CC1 [I-10]" result="0.1 to 10"
molecule="Cc1cccnc1[C@@H]1CCC[C@H](c2nccn2C2CCN(C)CC2)N1 [I-171]" result="0.1 to 10"
molecule="CN1CC2CCC(C1)N2c1cccc2nc([C@H]3CCC[C@@H](c4ncccc4Cl)N3)[nH]c12 [I-121]" result="0.1 to 10"
molecule="Cc1cccnc1[C@@H]1CCC[C@H](c2nc3cccc(OC4CCN(C(C)C)CC4)c3[nH]2)N1C [I-44]" result="0.1 to 10"
molecule="Cc1cccnc1[C@@H]1CCC[C@H](c2nc3cccc(N4CCC(N(C)C)CC4)c3[nH]2)N1C [I-67]" result="0.1 to 10"
molecule="Cc1cccnc1[C@@H]1CCC[C@H](c2nc3ccccc3n2CCCN)N1C [I-2]" result="> 30"
molecule="CNCCCn1c([C@H]2CCC[C@@H](c3ncccc3C)N2C)nc2ccccc21 [I-16]" result="> 30"
molecule="Cc1cccnc1[C@@H]1CCC[C@H](c2nc3ccccc3n2CC2CCNCC2)N1C [I-14]" result="> 30"
molecule="Cc1cccnc1[C@@H]1CCC[C@H](c2nc3cccc(N4CCN5CCCC5C4)c3[nH]2)N1C (stereo partly drawn) [I-66]" result="0.1 to 10"
molecule="Cc1cccnc1[C@@H]1CCC[C@H](c2nc3c(N4CCN(C)CC4)cccc3n2C)N1 [I-141]" result="0.1 to 10"
molecule="CN1CCN(c2cccc3nc([C@H]4CCC[C@@H](c5ncccc5C(F)(F)F)N4C)[nH]c23)CC1 (relative stereo) [I-58]" result="0.1 to 10"
molecule="Cc1cccnc1[C@@H]1CCC[C@H](c2nc3ccccc3n2CCCN2CCC(F)(F)CC2)N1C [I-30]" result="0.1 to 10"
molecule="Cc1cccnc1[C@@H]1CCC[C@H](c2nc3cccc(N4CCNCC4)c3[nH]2)N1C [I-136]" result="10 to 30"
